Answer each item with its documented IC50.
Target: EF2K (Homo sapiens, UniProt O00418)
Construct: host or cells: LN-229 cell lysate
Assay: EF2K cell-based assay (P-EF2 AlphaLISA, 2-deoxyglucose stimulated MCF10A cells)
Settings: 2.5 mM 2-deoxyglucose stimulated, P-EF2 Thr56, pIC50 = -log IC50 (M), read-out: eEF2K_C_PThr56 pIC50 (converted)

CN1CCCN(C)c2ccc(cn2)-c2ccnc(n2)Nc2cccc(c2)CN2CCN(C)C(C2)C1=O (stereo not shown) [Compound 75]	> 3.02e-05 M
COCC1CN2CCN1Cc1cccc(c1)Nc1nccc(n1)-c1ccc(nc1)N(C)CCCN(C)C(=O)C2 (stereo not shown) [Compound 97]	2.24e-05 M
CN1CCCN(C)c2ccc(cn2)-c2ccnc(n2)Nc2cccc(c2)CN2CCN(CC1=O)C(CO)C2 (single isomer, unassigned) [Compound 95]	> 3.02e-05 M

Would you be so kind as to report IC50 for each listed record?
1. COCCN1CCNc2ccc(cn2)-c2ccnc(n2)Nc2cccc(c2)CN2CCN(CC2)CC1=O [Compound 123]
2. CN1CCCN(C)c2ccc(cn2)-c2ccnc(n2)Nc2cccc(c2)CN2CCN(CC1=O)CC2COCCN1CCOCC1 (single isomer, unassigned) [Compound 99]
3. O=C1CN2CCN(Cc3cccc(c3)Nc3nccc(n3)-c3ccc(nc3)NCCCN1)C(CO)C2 (single isomer, unassigned) [Compound 47]
4. O=C1CN2CCN(CC2)Cc2cccc(c2)Nc2nccc(n2)-c2ccc(nc2)N2CC(O)CC2CCN1 (single isomer, unassigned) [Compound 90]

1. > 3.02e-05 M
2. > 3.02e-05 M
3. 4.57e-06 M
4. > 3.02e-05 M

====

Molecular target: Vps34 (PIK3C3 lipid kinase) (Homo sapiens, UniProt Q8NEB9)
Sequence (Q8NEB9 whole entry, species assumed): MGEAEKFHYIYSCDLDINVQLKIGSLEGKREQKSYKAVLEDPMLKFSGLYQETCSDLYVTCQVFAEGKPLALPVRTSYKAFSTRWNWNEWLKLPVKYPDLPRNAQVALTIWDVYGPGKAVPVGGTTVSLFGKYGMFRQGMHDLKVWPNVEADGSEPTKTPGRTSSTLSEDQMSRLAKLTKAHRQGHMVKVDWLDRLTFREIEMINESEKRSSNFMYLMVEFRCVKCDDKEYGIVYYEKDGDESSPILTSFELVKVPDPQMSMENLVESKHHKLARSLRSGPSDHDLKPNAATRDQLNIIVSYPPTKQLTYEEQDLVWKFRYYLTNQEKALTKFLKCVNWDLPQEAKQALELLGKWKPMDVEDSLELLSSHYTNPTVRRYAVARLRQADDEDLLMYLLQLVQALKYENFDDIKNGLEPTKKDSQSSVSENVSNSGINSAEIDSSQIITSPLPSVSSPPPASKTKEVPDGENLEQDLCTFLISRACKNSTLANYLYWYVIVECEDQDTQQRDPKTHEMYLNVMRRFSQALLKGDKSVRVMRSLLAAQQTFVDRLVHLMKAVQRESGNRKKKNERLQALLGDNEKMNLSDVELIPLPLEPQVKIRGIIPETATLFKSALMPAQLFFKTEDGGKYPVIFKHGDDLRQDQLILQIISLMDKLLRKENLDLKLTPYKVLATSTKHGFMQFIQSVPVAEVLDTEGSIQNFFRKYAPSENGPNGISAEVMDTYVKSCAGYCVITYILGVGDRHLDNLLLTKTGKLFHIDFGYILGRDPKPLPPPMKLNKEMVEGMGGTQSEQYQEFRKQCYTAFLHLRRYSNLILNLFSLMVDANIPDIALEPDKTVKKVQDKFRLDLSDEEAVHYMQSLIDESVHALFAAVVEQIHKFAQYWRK
Assay: Biochemical Vps34 lipid kinase assay (ADP-Glo)
Settings: 1 h, single dose 1 μM compound; residual activity compared to control (DMSO); read-out: VPS34_1microM_% of cntrl
Criterion: remaining activity at 1 µM strictly under 20%. Met: YES. Not met: NO.

// known answers, use as guide
CN1CCCN(C)c2ccc(cn2)-c2ccnc(n2)Nc2cccc(c2)CC2CCN(CC2)CC1=O	YES
CN1CCCN(C)c2ccc(cn2)-c2ccnc(n2)Nc2cccc(c2)CN2CCN(CC1=O)CC2COCCN1CCNCC1 (stereo not drawn)	NO
CN1CCCN(C)c2ccc(cn2)-c2ccnc(n2)Nc2cccc(c2)CC2(O)CCN(CC2)CC1=O	NO

# TODO verify remaining activity at 1 µM < 20% strictly for this compound: CN1CCCN(C)c2ccc(cn2)-c2ccnc(n2)Nc2cccc(c2)CN2CCN(CC1=O)C(CCO)C2 (stereo not drawn)
YES

# TODO verify remaining activity at 1 µM < 20% strictly for this compound: CN1CCCN(C)c2ccc(cn2)-c2ccnc(n2)Nc2cccc(c2)CN2CCC(CC2)CC1=O
NO

# TODO verify remaining activity at 1 µM < 20% strictly for this compound: CC1C(=O)N(C)CCCN(C)c2ccc(cn2)-c2ccnc(n2)Nc2cccc(c2)CN2CCN1CC2 (stereo not drawn)
NO

====

Biological target: Vps34 (PIK3C3 lipid kinase) (Homo sapiens, UniProt Q8NEB9)
Experiment: Biochemical Vps34 lipid kinase assay (ADP-Glo)
Details: 1 h, single dose 1 μM compound; residual activity compared to control (DMSO); read-out: VPS34_1microM_% of cntrl
Answer each item with its documented remaining activity at 1 µM.
One number for each entry, in %.

COCCOCC1CN2CCN1Cc1cccc(c1)Nc1nccc(n1)-c1ccc(nc1)N(C)CCCN(C)C(=O)C2 (stereo not shown) [Compound 101]	29.4

Would you be so kind as to report remaining activity at 1 µM for each listed record?
1. CN(C)C(=O)c1ccc2cc1CN1CCN(CC1)CC(=O)N(C)CCCN(C)c1ccc(cn1)-c1ccnc(n1)N2 [Compound 17]
2. CN1CCCN(C)c2ccc(cn2)-c2ccnc(n2)Nc2ccc(C(N)=O)c(c2)CN2CCN(CC2)CC1=O [Compound 10]
3. O=C1CN2CCN(CC2)Cc2ccc(F)c(c2)Nc2nccc(n2)-c2ccc(nc2)NCCCN1 [Compound 3]
4. CN1CCCN(C)c2ccc(cn2)-c2ccnc(n2)Nc2ccnc(c2)CN2CCN(CC2)CC1=O [Compound 32]
5. CN1CCCN(C)c2ccc(cn2)-c2ccnc(n2)Nc2cccc(c2)CN2CCN(CC1=O)C(CO)C2 (single isomer, unassigned) [Compound 95]
6. CN1CCCN(C)c2ccc(cn2)-c2ccnc(n2)Nc2cccc(c2)C(=O)N2CCN(CC2)CC1=O [Compound 28]

1. 39.5
2. 10.8
3. 4.43
4. 11.1
5. 18.8
6. 45.6

====

Answer each item with its documented IC50.
Target: Vps34 (PIK3C3 lipid kinase) (Homo sapiens, UniProt Q8NEB9)
Experiment: Biochemical Vps34 lipid kinase assay (ADP-Glo)
Settings: serial half-log dilution 10 μM to 0.3 nM; pIC50 = -log IC50 (M)
One number for each entry, in M.

Known IC50 results, listed for orientation:
CN1CCCN(C)c2ccc(cn2)-c2ccnc(n2)Nc2cccc(c2)CN2CCNC(C2)C1=O (centres unmarked)	4.79e-07
CC(C)CN1CCNC(=O)CN2CCN(CC2)Cc2cccc(c2)Nc2nccc(n2)-c2ccc(nc2)C1	7.76e-08
O=C1CC2CCN(CC2)Cc2cccc(c2)Nc2nccc(n2)-c2ccc(nc2)NCCCN1	6.03e-07
COCC1C(=O)NCCCNc2ccc(cn2)-c2ccnc(n2)Nc2cccc(c2)CN2CCN1CC2 (centres unmarked)	1.41e-07
O=C1CN2CCN(CC2)Cc2cccc(c2)Nc2nccc(n2)-c2ccc(nc2)N2CCCC2CN1 (centres unmarked)	1.02e-07
O=C1CN2CCN(CCc3cccc(c3)Nc3nccc(n3)-c3ccc(nc3)NCCCN1)CC2	1.41e-07

Would you be so kind as to report IC50 for each listed record?
1. O=C1CN2CCN(CC2)Cc2cc(ccc2F)Nc2nccc(n2)-c2ccc(nc2)NCCCN1
2. CN1CCCN(C)c2ccc(cn2)-c2ccnc(n2)Nc2cccc(c2)N2CCN(CC2)CC1=O

["1e-07", "3.47e-07"]

====

Target: EF2K (Homo sapiens, UniProt O00418)
Construct: host or cells: LN-229 cell lysate
Experiment: EF2K cell-based assay (P-EF2 AlphaLISA, 2-deoxyglucose stimulated MCF10A cells)
Details: 2.5 mM 2-deoxyglucose stimulated, P-EF2 Thr56, pIC50 = -log IC50 (M), read-out: eEF2K_C_PThr56 pIC50 (converted)
Answer each item with its documented IC50.

Known IC50 results, listed for orientation:
Cc1cc2cc(c1)Nc1nccc(n1)-c1ccc(nc1)N(C)CCCN(C)C(=O)CN1CCN(CC1)C2 [Compound 8]	> 3.02e-05 M
O=C1CN2CCN(CC2)Cc2cccc(c2)Nc2nccc(n2)-c2ccc(nc2)CNCCN1 [Compound 34]	~7.24e-06 M

Would you be so kind as to report IC50 for each listed record?
1. O=C1CN2CCN(CC2)Cc2ccc(F)c(c2)Nc2nccc(n2)-c2ccc(nc2)NCCCN1 [Compound 3]
2. O=C1CN2CCN(CC2)Cc2cccc(c2)Nc2nccc(n2)-c2ccc(nc2)CN(C(=O)C2CC2)CCN1 [Compound 44]
3. CN1CCCN(C)c2ccc(cn2)-c2ccnc(n2)Nc2cccc(c2)CN2CCN(CC1=O)CC2COCCO (single isomer, unassigned) [Compound 105]
4. CN1CCCN(C)c2ccc(cn2)-c2ccnc(n2)Nc2cccc(c2)CCN2CCN(CC2)CC1=O [Compound 29]
5. CN1CCCN(C)c2ccc(cn2)-c2ccnc(n2)Nc2cc(F)cc(c2)CN2CCN(CC2)CC1=O [Compound 6]

1. > 3.02e-05 M
2. 2.4e-06 M
3. 1.78e-05 M
4. > 3.02e-05 M
5. 2.45e-05 M

====

Biological target: EF2K (Homo sapiens, UniProt O00418)
Construct: host or cells: LN-229 cell lysate
Sequence (O00418 1-725): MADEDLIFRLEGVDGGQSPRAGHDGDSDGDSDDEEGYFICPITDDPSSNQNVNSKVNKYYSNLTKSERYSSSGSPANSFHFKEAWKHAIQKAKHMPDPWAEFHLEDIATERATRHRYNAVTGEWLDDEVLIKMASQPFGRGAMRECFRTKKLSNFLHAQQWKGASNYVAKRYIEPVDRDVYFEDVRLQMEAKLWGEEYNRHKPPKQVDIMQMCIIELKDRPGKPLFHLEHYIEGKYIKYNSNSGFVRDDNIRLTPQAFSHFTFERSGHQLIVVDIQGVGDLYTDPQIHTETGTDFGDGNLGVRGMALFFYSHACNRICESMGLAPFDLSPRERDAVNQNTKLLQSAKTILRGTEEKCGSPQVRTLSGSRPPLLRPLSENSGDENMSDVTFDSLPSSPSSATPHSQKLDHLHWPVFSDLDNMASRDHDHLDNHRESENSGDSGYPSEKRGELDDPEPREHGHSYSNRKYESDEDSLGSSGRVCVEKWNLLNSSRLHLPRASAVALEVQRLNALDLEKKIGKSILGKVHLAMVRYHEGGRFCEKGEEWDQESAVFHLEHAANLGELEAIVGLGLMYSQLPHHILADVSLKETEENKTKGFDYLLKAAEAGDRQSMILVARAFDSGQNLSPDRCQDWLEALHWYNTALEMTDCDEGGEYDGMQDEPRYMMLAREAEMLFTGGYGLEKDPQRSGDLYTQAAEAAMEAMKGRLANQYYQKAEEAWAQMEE
Experiment: EF2K cell-based assay (P-EF2 AlphaLISA, 2-deoxyglucose stimulated MCF10A cells)
Conditions: 2.5 mM 2-deoxyglucose stimulated, P-EF2 Thr56, pIC50 = -log IC50 (M), read-out: eEF2K_C_PThr56 pIC50 (converted)
Answer each item with its documented IC50.
Give bare numbers, in M.

O=C1CN2CCN(Cc3cccc(c3)Nc3nccc(n3)-c3ccc(nc3)NCCCN1)C(CO)C2 (centres unmarked) [Compound 46]	4.9e-06

Would you be so kind as to report IC50 for each listed record?
1. CN1CCCN(C)c2ccc(cn2)-c2ccnc(n2)Nc2cccc(c2)CC2(O)CCN(CC2)CC1=O [Compound 114]
2. O=C1CN2CCN(Cc3cccc(c3)Nc3nccc(n3)-c3ccc(nc3)NCCCN1)C(C(F)(F)F)C2 (centres unmarked) [Compound 50]
3. O=C1CN2CCN(CC2)Cc2cccc(c2)Nc2nccc(n2)-c2ccc(nc2)CN(CC2CC2)CCN1 [Compound 35]
4. O=C1CN2CCN(CC2)Cc2cc(F)cc(c2)Nc2nccc(n2)-c2ccc(nc2)NCCCN1 [Compound 5]

2.34e-05
4.9e-06
1.32e-07
2.51e-05

Would you be so kind as to report IC50 for each listed record?
1. CN1CCN(CCOCC2CN3CCN2Cc2cccc(c2)Nc2nccc(n2)-c2ccc(nc2)N(C)CCCN(C)C(=O)C3)CC1 (centres unmarked) [Compound 106]
2. CNC(=O)c1ccc2cc1CN1CCN(CC1)CC(=O)NCCCNc1ccc(cn1)-c1ccnc(n1)N2 [Compound 13]
3. C#CCN1CCNC(=O)CN2CCN(CC2)Cc2cccc(c2)Nc2nccc(n2)-c2ccc(nc2)C1 [Compound 36]
4. CN1CCCN(C)c2ccc(cn2)-c2ccnc(n2)Nc2cccc(c2)CN2CCN(CC1=O)CC2COCCN1CCOCC1 (single isomer, unassigned) [Compound 100]
5. COCCOCC1CN2CCN1Cc1cccc(c1)Nc1nccc(n1)-c1ccc(nc1)N(C)CCCN(C)C(=O)C2 (centres unmarked) [Compound 101]
6. CC1CN2CCN1Cc1cccc(c1)Nc1nccc(n1)-c1ccc(nc1)NCCCNC(=O)C2 (single isomer, unassigned) [Compound 62]
7. CN1CCCN(C)c2ccc(cn2)-c2ccnc(n2)Nc2cccc(c2)CN2CCN(CC2)C(c2ccccc2)C1=O (centres unmarked) [Compound 64]

1: 1.66e-05; 2: 6.76e-06; 3: 1.32e-06; 4: 1.48e-05; 5: 2.04e-05; 6: 2.04e-06; 7: 2.63e-05

Would you be so kind as to report IC50 for each listed record?
1. O=C1CN2CCN(CC2)Cc2cccc(c2)Nc2nccc(n2)-c2ccc(nc2)CN(CCOCC(F)(F)F)CCN1 [Compound 41]
2. CN1CCCN(C)c2ccc(cn2)-c2ccnc(n2)Nc2cccc(c2)CN2CCN(CC2)CC1=O [Compound 1]
3. CC1CN2CCN1Cc1cccc(c1)Nc1nccc(n1)-c1ccc(nc1)N(C)CCCN(C)C(=O)C2 (centres unmarked) [Compound 58]

1. 1.78e-06
2. 2.95e-06
3. 2.09e-06

Short answer please: IC50, EF2K (Homo sapiens, UniProt O00418), entry CN1CCN(C)c2ccc(cn2)-c2ccnc(n2)Nc2ccc(O)c(c2)CN2CCN(CC2)CC1=O [Compound 131]
7.59e-06

The measurements presented in this section are drawn from patent US10017509B2.
